Test Protocol: Metabolic stability in dog liver microsomes assessed as compound remaining at 1 uM after 30 mins in presence of NADPH regeneration system by LC-MS/MS analysis
Assay type: ADME, Canis lupus familiaris, Microsome
Condition Details: read-out: Stability
Measured Endpoint: remaining at 0.5 h, 1 µM

Structure Notation: CC(C)N1CCN(c2ccc(/C(=C(/CCCO)c3ccccc3)c3ccc(Br)cc3)cc2)CC1.Cl.Cl
Result: 64.4%
//
Structure Notation: CC(C)N1CCN(c2ccc(/C(=C(/CCCO)c3ccccc3)c3cccc(O)c3)cc2)CC1.Cl.Cl
Result: 61.2%
//
Structure Notation: CCN1CCN(c2ccc(/C(=C(/CCCO)c3ccccc3)c3ccc(C)cc3)cc2)CC1.Cl.Cl
Result: 58%
//
Structure Notation: Cc1ccc(/C(=C(\CCCO)c2ccccc2)c2ccc(N3CCNCC3)cc2)cc1.Cl.Cl
Result: 58%
//
Structure Notation: CC(C)N1CCN(c2ccc(/C(=C(/CCCO)c3ccccc3)c3ccc(O)cc3)cc2)CC1.Cl.Cl
Result: 49.7%
//
Structure Notation: CC(C)N1CCN(c2ccc(/C(=C(/CCCO)c3ccccc3)c3cccc(Br)c3)cc2)CC1
Result: 68.4%

---

molecules and their reported AUC
Test Protocol: AUC in Sprague-Dawley rat at 9 to 10 mg/kg, po via gavage by LC-MS/MS analysis
Assay type: ADME, organism-based
Condition Details: in vivo

Structure Notation: Cc1ccc(/C(=C(\CCCO)c2ccccc2)c2ccc(N3CCN(C)CC3)cc2)cc1.Cl.Cl
AUC (µM·h): 0.45

Structure Notation: CN(C)CCOc1ccc(/C(=C(/CCCO)c2ccccc2)c2ccc(O)cc2)cc1.Cl
AUC (µM·h): 0.68

Structure Notation: Cc1ccc(/C(=C(\CCCO)c2ccccc2)c2ccc(N3CCN(C(C)C)CC3)cc2)cc1.Cl.Cl
AUC (µM·h): 1.02

Structure Notation: CCN1CCN(c2ccc(/C(=C(/CCCO)c3ccccc3)c3ccc(C)cc3)cc2)CC1.Cl.Cl
AUC (µM·h): 1.07

---

compounds and their reported inhibition at 0.25 h, 10 µM
Target Of Assay: CYP2D6 (Homo sapiens)
Sequence (P10635 whole entry): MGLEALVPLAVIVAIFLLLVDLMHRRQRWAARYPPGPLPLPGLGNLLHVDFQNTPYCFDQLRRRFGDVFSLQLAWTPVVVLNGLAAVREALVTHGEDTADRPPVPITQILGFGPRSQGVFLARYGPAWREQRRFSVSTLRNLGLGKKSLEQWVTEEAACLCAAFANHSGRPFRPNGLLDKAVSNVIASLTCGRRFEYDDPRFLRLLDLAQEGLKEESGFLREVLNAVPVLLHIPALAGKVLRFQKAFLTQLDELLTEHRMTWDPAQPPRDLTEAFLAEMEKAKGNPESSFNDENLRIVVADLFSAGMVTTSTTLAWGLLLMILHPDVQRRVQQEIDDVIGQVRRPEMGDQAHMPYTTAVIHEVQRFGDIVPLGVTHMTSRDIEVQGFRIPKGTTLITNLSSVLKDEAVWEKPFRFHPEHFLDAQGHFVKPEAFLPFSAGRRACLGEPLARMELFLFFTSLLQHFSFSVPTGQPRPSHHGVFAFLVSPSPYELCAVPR
Test Protocol: Inhibition of CYP2D6 in human liver microsomes assessed as reduction in dextromethorphan O-demethylase activity at 10 uM preincubated for 5 mins followed by NADPH addition and measured after 15 mins by LC-MS/MS analysis relative to control
Type: ADME
Condition Details: probe dextromethorphan (O-demethylation)

Structure Notation: Cc1ccc(/C(=C(\CCCO)c2ccccc2)c2ccc(N3CCNCC3)cc2)cc1.Cl.Cl
inhibition at 0.25 h, 10 µM / %: 38.5

Structure Notation: CC(C)N1CCN(c2ccc(/C(=C(/CCCO)c3ccccc3)c3ccc(O)cc3)cc2)CC1.Cl.Cl
inhibition at 0.25 h, 10 µM / %: 36.5

Structure Notation: CC(C)N1CCN(c2ccc(/C(=C(/CCCO)c3ccccc3)c3ccc(Br)cc3)cc2)CC1.Cl.Cl
inhibition at 0.25 h, 10 µM / %: 28.5

Structure Notation: CC(C)N1CCN(c2ccc(/C(=C(/CCCO)c3ccccc3)c3cccc(O)c3)cc2)CC1.Cl.Cl
inhibition at 0.25 h, 10 µM / %: 34

Structure Notation: OCCC/C(=C(\c1ccc(Br)cc1)c1ccc(N2CCNCC2)cc1)c1ccccc1
inhibition at 0.25 h, 10 µM / %: 29.3

Structure Notation: CC(C)N1CCN(c2ccc(/C(=C(/CCCO)c3ccccc3)c3cccc(Br)c3)cc2)CC1
inhibition at 0.25 h, 10 µM / %: 70.4

Structure Notation: CCN1CCN(c2ccc(/C(=C(/CCCO)c3ccccc3)c3ccc(C)cc3)cc2)CC1.Cl.Cl
inhibition at 0.25 h, 10 µM / %: 13.4

Structure Notation: Cc1ccc(/C(=C(\CCCO)c2ccccc2)c2ccc(N3CCN(C)CC3)cc2)cc1.Cl.Cl
inhibition at 0.25 h, 10 µM / %: 31.8

Structure Notation: Cc1ccc(/C(=C(\CCCO)c2ccccc2)c2ccc(N3CCN(C(C)C)CC3)cc2)cc1.Cl.Cl
inhibition at 0.25 h, 10 µM / %: 31.1
